ASSAYED TARGET: human androgen receptor (AR) (Homo sapiens)
Construct: expressed in transfected cells; host or cells: mouse myoblast C2C12 cells, transiently co-transfected
Sequence (P10275 whole entry): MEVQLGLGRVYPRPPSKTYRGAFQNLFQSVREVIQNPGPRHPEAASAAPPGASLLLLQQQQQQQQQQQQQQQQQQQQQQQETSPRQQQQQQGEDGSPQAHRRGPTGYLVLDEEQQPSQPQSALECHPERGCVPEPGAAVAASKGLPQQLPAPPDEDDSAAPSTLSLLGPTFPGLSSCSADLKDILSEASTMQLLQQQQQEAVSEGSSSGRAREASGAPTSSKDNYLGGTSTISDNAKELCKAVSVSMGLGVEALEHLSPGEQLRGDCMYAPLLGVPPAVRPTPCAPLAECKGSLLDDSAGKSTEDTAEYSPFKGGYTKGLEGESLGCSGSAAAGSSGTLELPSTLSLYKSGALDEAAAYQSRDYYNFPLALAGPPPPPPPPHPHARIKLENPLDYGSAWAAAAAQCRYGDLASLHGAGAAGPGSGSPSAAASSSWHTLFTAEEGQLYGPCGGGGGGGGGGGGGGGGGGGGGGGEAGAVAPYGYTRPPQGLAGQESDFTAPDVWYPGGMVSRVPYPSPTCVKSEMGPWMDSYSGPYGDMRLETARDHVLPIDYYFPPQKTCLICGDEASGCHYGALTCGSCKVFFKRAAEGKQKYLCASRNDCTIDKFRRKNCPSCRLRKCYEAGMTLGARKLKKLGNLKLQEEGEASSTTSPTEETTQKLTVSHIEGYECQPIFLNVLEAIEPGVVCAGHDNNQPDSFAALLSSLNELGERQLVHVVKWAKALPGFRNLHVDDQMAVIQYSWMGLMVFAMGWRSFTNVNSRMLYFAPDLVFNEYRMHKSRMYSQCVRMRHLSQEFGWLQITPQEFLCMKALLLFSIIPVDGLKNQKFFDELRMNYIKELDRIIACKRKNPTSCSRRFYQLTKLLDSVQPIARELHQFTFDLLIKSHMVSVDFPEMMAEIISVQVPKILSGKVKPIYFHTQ
EXPERIMENTAL DETAILS: C2C12 AR/ARE reporter assay
Assay type: cell-based
RECORDED CONDITIONS: C2C12, read-out: C2C12 % Efficacy
Procedure: As an indicator of agonist activity in muscle tissue, the C2C12 AR/ARE reporter assay is performed. Briefly, mouse myoblast C2C12 cells are co-transfected using FuGENE™. […] Cells are transfected in T150 cm^2 flasks in DMEM media with 4% or 10% Fetal Bovine Serum (PBS). […] After 48 h of incubations with compounds, cells are lysed and luciferase activity is determined using standard techniques. […] The % efficacy is determined versus maximum stimulation obtained with 10 nM methyltrienolone. […]
Sorting guide: entries reporting Emax beneath 80% go in the rule met pile, the rest go in the rule not met pile.

Could you please tell me whether Emax recorded for CC(C)C(=O)NC1CCc2c(c3cc(Br)ccc3n2Cc2ccc(Cl)cc2)C1 (stereo not drawn) [Example 40] is less than 80%?
rule met

Could you please tell me whether Emax recorded for CC(C)C(=O)NC1CCc2c(c3cc(C(=O)C(F)(F)F)ccc3n2Cc2cccc(F)c2)C1 (stereo not drawn) [Example 210] is less than 80%?
rule met

Could you please tell me whether Emax recorded for CC(C)C(=O)NC1CCc2c(c3cc(Cl)ccc3n2Cc2ccccc2F)C1 (stereo not drawn) [Example 17] is less than 80%?
rule met

Could you please tell me whether Emax recorded for CC(C)C(=O)N[C@H]1CCc2c(c3cc(C#N)ccc3n2Cc2ccccc2N)C1 (single isomer, unassigned) [Example 111] is less than 80%?
rule not met

Could you please tell me whether Emax recorded for Cc1ccc2c(c1)c1c(n2Cc2ccccc2Cl)CCC(NC(=O)C(C)C)C1 (stereo not drawn) [Example 44] is less than 80%?
rule met

Could you please tell me whether Emax recorded for COc1ccccc1Cn1c2c(c3cc(F)ccc31)CC(NC(=O)C(C)C)CC2 (stereo not drawn) [Example 6] is less than 80%?
rule met

Could you please tell me whether Emax recorded for CC(C)C(=O)NC1CCc2c(c3cc(C#N)ccc3n2Cc2ncccc2F)C1 (stereo not drawn) [Example 182] is less than 80%?
rule not met

Could you please tell me whether Emax recorded for CC(C)C(=O)NC1CCc2c(c3cc(F)ccc3n2Cc2ccccc2F)C1 (stereo not drawn) [Example 4] is less than 80%?
rule met

Could you please tell me whether Emax recorded for CC(C)C(=O)N[C@@H]1CCc2c(c3cc(-c4ccno4)ccc3n2Cc2cccc(F)c2)C1 [Example 192] is less than 80%?
rule met

Could you please tell me whether Emax recorded for COc1ccc2c(c1)c1c(n2Cc2ccccc2Cl)CCC(NC(=O)C(C)C)C1 (stereo not drawn) [Example 69] is less than 80%?
rule met

Could you please tell me whether Emax recorded for Cc1csc(-c2ccc3c(c2)c2c(n3Cc3cccc(F)c3)CC[C@@H](NC(=O)C(C)C)C2)n1 [Example 128] is less than 80%?
rule met

Could you please tell me whether Emax recorded for CC(C)C(=O)NC1CCc2c(c3cc(Cl)ccc3n2Cc2ccc(Cl)cc2)C1 (stereo not drawn) [Example 26] is less than 80%?
rule met

Could you please tell me whether Emax recorded for N#Cc1ccc2c(c1)c1c(n2Cc2cccc(F)n2)CC[C@@H](NC(=O)C2CC2)C1 [Example 195] is less than 80%?
rule not met

Could you please tell me whether Emax recorded for CC(C)C(=O)NC1CCc2c(c3cc(C#N)ccc3n2Cc2ccccc2OC(F)(F)F)C1 (stereo not drawn) [Example 100] is less than 80%?
rule not met

Could you please tell me whether Emax recorded for CO/N=C/c1ccc2c(c1)c1c(n2Cc2cccc(F)n2)CC[C@@H](NC(=O)C2CC2)C1 [Example 209] is less than 80%?
rule not met
